B1: HHH_rd1_0493 (parent)
chain: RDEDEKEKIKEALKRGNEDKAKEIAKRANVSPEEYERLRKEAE

Variants of: B1
runDescription: folding stability dG (cDNA display proteolysis); higher = more stable
testContext: PBS, room temperature
Binary classification by folding stability dG, with 2 kcal/mol as an inclusive lower bound for class 1; all other cases are class 0.

• RDEDEKEKIKEALKRGNEDKAKEIAKRANVSPEEYERLRIEAE [K40I] = class 1
• RDEDEKEKIKEALKRGNFDKAKEIAKRANVSPEEYERLRKEAE [E18F] = class 1
• RDEDEKEKDKEALKRGNEDKAKEIAKRANVSPEEYERLRKEAE [I9D] = class 0
• RDEDEKEKIKEALKRGNEDKAKEIAKMANVSPEEYERLRKEAE [R27M] = class 1
• RDEDEKEKIFEALKRGNEDKAKEIAKRANVSPEEYERLRKEAE [K10F] = class 1
• RDEDETEKIKEALKRGNEDKAKEIAKRANVSPEEYERLRKEAE [K6T] = class 1
• RDEDEKEKIKEALKRGNEDKAKPIAKRANVSPEEYERLRKEAE [E23P] = class 0
• RDEDEKEKIKEALKRGNEDKAKEIAKRANVSPEHYERLRKEAE [E34H] = class 0
• RCEDEKEKIKEALKRGNEDKAKEIAKRANVSPEEYERLRKEAE [D2C] = class 1
• RDEDEKEKIKEALKRGNEDKAKEIAKRANVPPEEYERLRKEAE [S31P] = class 1
• RDEDEKEKIKEALKRGNEDKAKEIAKRANVSPEEYERLHKEAE [R39H] = class 0
• RDEDEKEKIKEALKRGNEDKAKEIAKRANVSPEEYERLRKEAL [E43L] = class 1
• RDEDEKEKIKEALKRGNEDKAKEIEKRANVSPEEYERLRKEAE [A25E] = class 0
• RDEDEKEKIKEALKRGNEDKAKEIAKRANVVPEEYERLRKEAE [S31V] = class 0
• RDEDEKEQIKEALKRGNEDKAKEIAKRANVSPEEYERLRKEAE [K8Q] = class 1
• RDEDEKEKIKEALKRGNEDPAKEIAKRANVSPEEYERLRKEAE [K20P] = class 0
• RDEDEKEKIKEALKRGNEDKAKEIAKRANVMPEEYERLRKEAE [S31M] = class 1
• RDEDEKEKIKEALKRGNEDKAKEIAKRANMSPEEYERLRKEAE [V30M] = class 1
• RDEDEKEKIKEALKRGNEDKAKEIAKRANVIPEEYERLRKEAE [S31I] = class 0
• RDEDEKEKIKEALKRGNEDKAKEIAKGANVSPEEYERLRKEAE [R27G] = class 1
• RDEDEKHKIKEALKRGNEDKAKEIAKRANVSPEEYERLRKEAE [E7H] = class 1
• RDEDEKEKIKEALKRGNEDKAKERAKRANVSPEEYERLRKEAE [I24R] = class 0
• RDEDEKEKIKEALKRGNEDKAKEIAKRANVSPNEYERLRKEAE [E33N] = class 1
• RDEDEKEKIKEALKRGNEDKAKEIAKRNNVSPEEYERLRKEAE [A28N] = class 1
• RDEDEKEKIKEALKRGNEDKAKEIAKRANVSPEEYEILRKEAE [R37I] = class 1
• RDEDEKEKIKEALKRGNEDKAKEIAKRANVSQEEYERLRKEAE [P32Q] = class 1
• RDEDTKEKIKEALKRGNEDKAKEIAKRANVSPEEYERLRKEAE [E5T] = class 1
• RDEDEKEKIKEALKRGNEDKAKEIAKRANVSPEEYERLRKEWE [A42W] = class 1
• RDEDEKEKIKEALKRGNEDKAKEIAKRANVSPEEYERLLKEAE [R39L] = class 1
• RDEDEKEKIKEKLKRGNEDKAKEIAKRANVSPEEYERLRKEAE [A12K] = class 0
• RDEDEKEIIKEALKRGNEDKAKEIAKRANVSPEEYERLRKEAE [K8I] = class 1
• RDEDEKEKIKEALKRGNENKAKEIAKRANVSPEEYERLRKEAE [D19N] = class 1
• RDEDEKEKIKEALKRGKEDKAKEIAKRANVSPEEYERLRKEAE [N17K] = class 1
• RDEDEKEKIKEALKRGNEDKAKEIAKRANVSPEEYERLRKEAN [E43N] = class 1
• RDEDEKEKIKEALKRGNEDKAKEIAKRANVSPELYERLRKEAE [E34L] = class 0
• RDEDEKEKIKEALKRGNEDKAKEIAKRANVSPEEYERLRKEAA [E43A] = class 1
• RDEDEKEKIKEALKDGNEDKAKEIAKRANVSPEEYERLRKEAE [R15D] = class 1
• RDEDEKEKIKEGLKRGNEDKAKEIAKRANVSPEEYERLRKEAE [A12G] = class 0
• RDEDEKEKIKEALKRGNEDKAKEIAKRANVSPEEYERLRTEAE [K40T] = class 1
• RDEDEKEKIKEALKRGNEDKAKEIAKRANVSPEEYERLRKEAP [E43P] = class 0
• RDEDESEKIKEALKRGNEDKAKEIAKRANVSPEEYERLRKEAE [K6S] = class 1
• RDEIEKEKIKEALKRGNEDKAKEIAKRANVSPEEYERLRKEAE [D4I] = class 1
• RDEDELEKIKEALKRGNEDKAKEIAKRANVSPEEYERLRKEAE [K6L] = class 1
• RDEDEKAKIKEALKRGNEDKAKEIAKRANVSPEEYERLRKEAE [E7A] = class 1
• RDEDSKEKIKEALKRGNEDKAKEIAKRANVSPEEYERLRKEAE [E5S] = class 1
• RDEDEKEKIKEALKRGNEDKAKEIAKRAQVSPEEYERLRKEAE [N29Q] = class 1
• RDEDEKEKIKEALKRGNEDEAKEIAKRANVSPEEYERLRKEAE [K20E] = class 1
• RDEDEKEKIKEALKRGNEDKAKEIAMRANVSPEEYERLRKEAE [K26M] = class 1
• RDEDEKEKIKEALKRGNEDKTKEIAKRANVSPEEYERLRKEAE [A21T] = class 0
• RDEDEKEHIKEALKRGNEDKAKEIAKRANVSPEEYERLRKEAE [K8H] = class 1
• RDEDEKEKIKENLKRGNEDKAKEIAKRANVSPEEYERLRKEAE [A12N] = class 1
• RDEDEKEKIKEALKRGNEDKAKEIAKRINVSPEEYERLRKEAE [A28I] = class 1
• RDEDEKEKIKEALKFGNEDKAKEIAKRANVSPEEYERLRKEAE [R15F] = class 1
• RDEDEKEKIKEALKRGNEDKAKEIAYRANVSPEEYERLRKEAE [K26Y] = class 1
• RDEDEKEKIKEALKRGNEDKAKEIAKRANVSPEEVERLRKEAE [Y35V] = class 0
• RDEDEKEKIKEALKRGNEDKAKEIAKRANGSPEEYERLRKEAE [V30G] = class 0
• RDEDEKEKIKEALKRGNEDKCKEIAKRANVSPEEYERLRKEAE [A21C] = class 0
• RDEDEKEKIKEALKRGNEDKAKEIAKRANVSPEEYENLRKEAE [R37N] = class 1
• RDEDEKEKIKFALKRGNEDKAKEIAKRANVSPEEYERLRKEAE [E11F] = class 0
• RDEDEKEKIKEALKRGNEDKAKEIAKRANVFPEEYERLRKEAE [S31F] = class 0
• RDEDEKEKRKEALKRGNEDKAKEIAKRANVSPEEYERLRKEAE [I9R] = class 0
• RDEDEKEKIKEALMRGNEDKAKEIAKRANVSPEEYERLRKEAE [K14M] = class 1
• RDEDEKEKIKEELKRGNEDKAKEIAKRANVSPEEYERLRKEAE [A12E] = class 1
• RDEDEKEKIKEALKSGNEDKAKEIAKRANVSPEEYERLRKEAE [R15S] = class 1
• RDEDEKEKIKEALKRGNEDKAKEIAKRANVSPEEYERLRKEAV [E43V] = class 1
• RDEDEKEKIKEALKRGNEDKAKEIAKRANVSPEEYERIRKEAE [L38I] = class 1
• RDEDEKEKIKEALKRGNEDKAKEIAKRANVSPAEYERLRKEAE [E33A] = class 1
• RDEDEKEKIKEALKRGNEDKAKEIRKRANVSPEEYERLRKEAE [A25R] = class 0
• RDEDEKEKIKEALKRGNEDKAKEVAKRANVSPEEYERLRKEAE [I24V] = class 0
• RDEDEKEKIKEALKRGNEDKAKEIAKRANVSPEEYERVRKEAE [L38V] = class 0
• RDEGEKEKIKEALKRGNEDKAKEIAKRANVSPEEYERLRKEAE [D4G] = class 1
• RDEDEKEKIKEAHKRGNEDKAKEIAKRANVSPEEYERLRKEAE [L13H] = class 0
• RDEMEKEKIKEALKRGNEDKAKEIAKRANVSPEEYERLRKEAE [D4M] = class 1
• RDEDEKEKIKEALKRGNNDKAKEIAKRANVSPEEYERLRKEAE [E18N] = class 1
• RDEDRKEKIKEALKRGNEDKAKEIAKRANVSPEEYERLRKEAE [E5R] = class 1
• RDLDEKEKIKEALKRGNEDKAKEIAKRANVSPEEYERLRKEAE [E3L] = class 1
• RDQDEKEKIKEALKRGNEDKAKEIAKRANVSPEEYERLRKEAE [E3Q] = class 1
• RDEDEKEKIKEALKRGNEDKAKEIASRANVSPEEYERLRKEAE [K26S] = class 1
• RDEDEKEKWKEALKRGNEDKAKEIAKRANVSPEEYERLRKEAE [I9W] = class 0
• RDEDEKEKIKEALKRGNEDKAKEIQKRANVSPEEYERLRKEAE [A25Q] = class 1
• RDEDEKEKIKEALKRGNEDKAKEIAKRANVSPEETERLRKEAE [Y35T] = class 0
• RDEDEKEKIKEALKRGNEDKAKEIAKRANVSPEEYIRLRKEAE [E36I] = class 0
• RDEDEKEKIKEALKRGNEDKAKEIAKRANVSYEEYERLRKEAE [P32Y] = class 1
• RDPDEKEKIKEALKRGNEDKAKEIAKRANVSPEEYERLRKEAE [E3P] = class 1
• RDEDEKEKIKEALKRGNEDKAKEIAFRANVSPEEYERLRKEAE [K26F] = class 1
• RDEDEKEKIKEALKRGNEDKAKEIAKRANVAPEEYERLRKEAE [S31A] = class 1
• RDEDEKEKIKEALKRGNEDKAKEIAKRANVSPEEYERLRKEAQ [E43Q] = class 1
• RDEDEKEKIKEALKRGNEDKVKEIAKRANVSPEEYERLRKEAE [A21V] = class 0
• RDEDEKEKIKEALKRGNEDKAKEIAKRANVSPENYERLRKEAE [E34N] = class 0
